Biological target: BRD4 BD1 (Homo sapiens, UniProt O60885)
Test: AlphaScreen binding assay, BRD4 Bromodomain 1
pIC50: −log10 of the molar value.
measured endpoint: pIC50

Consider the reported pIC50 for these molecules:
{"columns": ["molecule", "measured endpoint", "result"],
 "data": [
  ["CC(=O)N1c2ccccc2N(C(=O)COc2ccccc2)C[C@@H]1C [Example I-712]", "pIC50", "< 5.00"],
  ["COC(=O)N1c2ccc(-c3ccc(C(=O)N4CC[C@@H](N(C)C)C4)cc3)cc2N(C(=O)OC(C)C)C[C@@H]1C [Example I-565]", "pIC50", "6.00 to 7.00"],
  ["CC(=O)N1c2ccc(-c3ccc(S(C)(=O)=O)cc3)cc2N(C(=O)Oc2ccc(Cl)cc2)C[C@@H]1C [Example I-226]", "pIC50", "5.00 to 6.00"]
]}

Field pIC50 (entry CC(=O)N1c2ccc(-c3ccc(S(=O)(=O)NCCO)cc3)cc2N(C(=O)OC2CCCCC2)C[C@@H]1C [Example I-1217] ) reads 6.00 to 7.00

* * *

Target: BRD4 BD2 (Homo sapiens)
Assay: AlphaScreen binding assay, BRD4 Bromodomain 2
measured endpoint: IC50

Consider the reported IC50 for these compounds:
{"columns": ["compound", "IC50"],
 "data": [
  ["COC(=O)N1c2ccc(-c3cnn(CCO)c3)cc2N(C(=O)Oc2ccccn2)C[C@@H]1C", "50 to 500 nM"],
  ["CC(=O)N1c2ccc(-c3c[nH]nc3C)cc2N(C(=O)OC(C)C)CC1C (stereo not drawn)", "> 500 nM"],
  ["COc1ccccc1CNC(=O)N1C[C@H](C)N(C(C)=O)c2ccc(-c3ccc(S(C)(=O)=O)cc3)cc21", "> 500 nM"]
]}

Field IC50 (entry "CC(=O)N1c2ccc(-c3cnn(CC(=O)N4CCCCC4)c3)cc2N(C(=O)C2CC2)C[C@@H]1C" ) reads 50 to 500 nM

Field IC50 (entry "CC(C)OC(=O)N1C[C@H](C)N(C(=O)C2CC2)c2ccc(-c3cnn(CCO)c3)cc21" ) reads 50 to 500 nM

Field IC50 (entry "CCOC(=O)N1C[C@H](C)N(C(C)=O)c2ccc(-c3ccc(F)c(S(C)(=O)=O)c3)cc21" ) reads 50 to 500 nM

* * *

Biological target: BRD4 BD1 (Homo sapiens, UniProt O60885)
Test: AlphaScreen binding assay, BRD4 Bromodomain 1
pIC50: −log10 of the molar value.
measured endpoint: pIC50

Consider the reported pIC50 for these molecules:
{"columns": ["molecule", "measured endpoint", "result"],
 "data": [
  ["CC(=O)N1c2ccc(-c3cnn(C4CCCS(=O)(=O)C4)c3)cc2N(C(=O)OC2CC(F)(F)C2)C[C@@H]1C (stereo partly shown)", "pIC50", "6.00 to 7.00"],
  ["CC(=O)N1c2ccc(-c3ccc(NS(=O)(=O)c4ccc(C)cc4)cc3)cc2N(C(=O)c2ccco2)C[C@@H]1C", "pIC50", "6.00 to 7.00"],
  ["CNC(=O)Cn1cc(-c2ccc3c(c2)N(C(=O)C2CC2)C[C@H](C)N3C(C)=O)cn1", "pIC50", "5.00 to 6.00"]
]}

Here's the next entry for you.
Field pIC50 (entry "COC(=O)N1c2ccc(-c3ccc(N4CCCS4(=O)=O)cc3)cc2N(C(=O)OC(C)C)C[C@@H]1C" ) reads 6.00 to 7.00
